# System: wheat
# Measurement Notes: Test B pre/postemergence wheat
# Format: in vivo, Triticum aestivum
# Stated Conditions: Preemergence, Rate 500 g/ha; scale 0 to 10, 0 is no effect, 10 is complete control
Reported values of Wheat plant response rating for individual entries

{"Compound": "CC(C)N(C(=O)n1oc(=O)n(CC2CCC2)c1=O)c1ccc(F)cc1", "Wheat plant response rating": 0}
{"Compound": "CCC=CCn1c(=O)on(C(=O)N(c2ccccc2)C(C)C)c1=O", "Wheat plant response rating": 0}
{"Compound": "CCOP(=O)(OCC)C(C)n1c(=O)on(C(=O)N(c2ccccc2)C(C)C)c1=O (stereo not shown)", "Wheat plant response rating": 0}
{"Compound": "C=C(C)CCn1c(=O)on(C(=O)N(c2ccccc2)C(C)C)c1=O", "Wheat plant response rating": 2}
